Just for reference, paper PMC7501440 is where these values come from.

study_system: Human acetycholinesterase (hAChE) (Homo sapiens, UniProt P22303)
Construct: purchased Sigma
Sequence (P22303 32-614): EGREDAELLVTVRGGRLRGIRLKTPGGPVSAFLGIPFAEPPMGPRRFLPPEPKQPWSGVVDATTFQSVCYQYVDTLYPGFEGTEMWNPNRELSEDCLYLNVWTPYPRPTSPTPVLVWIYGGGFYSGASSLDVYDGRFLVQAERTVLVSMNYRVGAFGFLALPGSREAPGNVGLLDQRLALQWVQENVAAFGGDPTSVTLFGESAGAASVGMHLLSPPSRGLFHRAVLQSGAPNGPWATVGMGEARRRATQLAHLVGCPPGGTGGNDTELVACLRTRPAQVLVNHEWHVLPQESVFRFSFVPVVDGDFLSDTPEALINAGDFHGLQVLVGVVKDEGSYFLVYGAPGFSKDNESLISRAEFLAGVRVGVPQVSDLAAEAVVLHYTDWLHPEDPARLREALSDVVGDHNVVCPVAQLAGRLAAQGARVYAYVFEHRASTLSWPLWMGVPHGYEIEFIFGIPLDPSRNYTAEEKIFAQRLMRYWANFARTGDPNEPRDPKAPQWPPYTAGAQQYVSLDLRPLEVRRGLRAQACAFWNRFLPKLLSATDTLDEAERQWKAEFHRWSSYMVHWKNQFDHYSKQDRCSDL
run_description: hAChE enzyme kinetics, Lineweaver-Burk and secondary plots
Format: biochemical
settings: human AChE, secondary plot of Km/Vmax versus compound concentration; read-out: Ki
value_kind: pKi
Worth noting: pKi values are minus log10 of concentrations stated in mol/L.

Param item = CCOc1cc(OCC)c2c(=O)cc(-c3ccccc3)oc2c1/C=C/C(C)(C)O [Compound 4b] ; retrieve measured pKi. 3.69

# lookup: pKi of CC(C)(O)/C=C/c1c(OC(=O)c2ccccc2)cc(OC(=O)c2ccccc2)c2c(=O)cc(-c3ccccc3)oc12 [Compound 4c] 4.33

Tell me the measured pKi of CC(=O)Oc1cc(OC(C)=O)c2c(=O)cc(-c3ccccc3)oc2c1/C=C/C(C)(C)O [Compound 4e] , please. 3.70

Looking for the measured pKi of COc1cc(OC)c2c(=O)cc(-c3ccccc3)oc2c1/C=C/C(C)(C)O [Compound 4a] , can you help? 4.53

---

study_system: Human acetycholinesterase (hAChE) (Homo sapiens, UniProt P22303)
Construct: purchased Sigma
run_description: hAChE enzyme kinetics, Lineweaver-Burk and secondary plots
Assay type: biochemical
settings: hAChE, Lineweaver-Burk plots
value_kind: Inhibition type

Answered examples (4):
[
  {
    "molecule": "CC(=O)Oc1cc(OC(C)=O)c2c(=O)cc(-c3ccccc3)oc2c1/C=C/C(C)(C)O [Compound 4e]",
    "value_kind": "Inhibition type",
    "value_measured": "Competitive inhibition"
  },
  {
    "molecule": "CC(C)(O)/C=C/c1c(OC(=O)c2ccccc2)cc(OC(=O)c2ccccc2)c2c(=O)cc(-c3ccccc3)oc12 [Compound 4c]",
    "value_kind": "Inhibition type",
    "value_measured": "mixed type inhibition"
  },
  {
    "molecule": "COc1cc(OC)c2c(=O)cc(-c3ccccc3)oc2c1/C=C/C(C)(C)O [Compound 4a]",
    "value_kind": "Inhibition type",
    "value_measured": "mixed type inhibition"
  },
  {
    "molecule": "CC(C)(O)/C=C/c1c(OC(=O)c2ccc([N+](=O)[O-])cc2)cc(OC(=O)c2ccc([N+](=O)[O-])cc2)c2c(=O)cc(-c3ccccc3)oc12 [Compound 4d]",
    "value_kind": "Inhibition type",
    "value_measured": "mixed type inhibition"
  }
]

Observed Inhibition type on Human acetycholinesterase (hAChE) (Homo sapiens, UniProt P22303) for CCOc1cc(OCC)c2c(=O)cc(-c3ccccc3)oc2c1/C=C/C(C)(C)O [Compound 4b] , please. Competitive inhibition

---

study_system: Human acetycholinesterase (hAChE) (Homo sapiens, UniProt P22303)
Construct: purchased Sigma
run_description: hAChE enzyme kinetics, Lineweaver-Burk and secondary plots
Format: biochemical
settings: hAChE in presence of inhibitor; without inhibitor 0.34 ± 0.01
value_kind: Vmax
The reply should be a number, written without any unit.

Lab note: need Vmax for CCOc1cc(OCC)c2c(=O)cc(-c3ccccc3)oc2c1/C=C/C(C)(C)O on Human acetycholinesterase (hAChE) (Homo sapiens, UniProt P22303), anyone have it? 0.34

Look up Vmax with Human acetycholinesterase (hAChE) (Homo sapiens, UniProt P22303) for this molecule: COc1cc(OC)c2c(=O)cc(-c3ccccc3)oc2c1/C=C/C(C)(C)O 0.13

Return Vmax measured with Human acetycholinesterase (hAChE) (Homo sapiens, UniProt P22303) given this molecule: CC(C)(O)/C=C/c1c(OC(=O)c2ccc([N+](=O)[O-])cc2)cc(OC(=O)c2ccc([N+](=O)[O-])cc2)c2c(=O)cc(-c3ccccc3)oc12 0.15

// lookup Vmax | system=Human acetycholinesterase (hAChE) (Homo sapiens, UniProt P22303) | key= CC(C)(O)/C=C/c1c(OC(=O)c2ccccc2)cc(OC(=O)c2ccccc2)c2c(=O)cc(-c3ccccc3)oc12 0.14

Notebook entry, Human acetycholinesterase (hAChE) (Homo sapiens, UniProt P22303) assay: Vmax of CC(=O)Oc1cc(OC(C)=O)c2c(=O)cc(-c3ccccc3)oc2c1/C=C/C(C)(C)O = ? 0.36
